So I've got a bunch of variants here, and I need their abundance fitness values.
B1: Segment polarity protein dishevelled homolog DVL-3, residues 2 to 81; numbered along this chain, Q92997 (parent)
chain: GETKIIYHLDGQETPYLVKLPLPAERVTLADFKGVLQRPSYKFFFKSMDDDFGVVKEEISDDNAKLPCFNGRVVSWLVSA

Variants of: B1
Assay: abundance fitness (aPCA) (normalised: wild type 0, dead -1); higher = more abundant; growth selection in yeast, the domain comes from the species named
Settings: Homo sapiens
Give bare numbers.

[[record]]
variant_name = "S47G"
metric_name = "abundance fitness"
measured_value = -0.336


# per-item lookup of abundance fitness; items listed below
1. V27P
2. L20C
3. A64F

Return:
1. -0.656
2. -0.632
3. -0.786

# per-item lookup of abundance fitness; items listed below
1. R26A
2. F52M
3. G53A
4. L22Q
5. A80M
6. T28K
7. D31C

Return:
1: 0.027; 2: 0.156; 3: 0.096; 4: -0.429; 5: -0.101; 6: -0.52; 7: -0.359

# per-item lookup of abundance fitness; items listed below
1. G34H
2. S79L
3. L22W
4. S40V
5. N63S

Return:
1. -0.388
2. -0.67
3. -0.578
4. 0.134
5. -0.104

# per-item lookup of abundance fitness; items listed below
1. G53L
2. A80V
3. I59S
4. V27S
5. P21V
6. L77S
7. K46G

Return:
1. -0.321
2. -0.105
3. -0.704
4. -0.675
5. -0.789
6. -0.831
7. -0.223
